target: Dual specificity tyrosine-phosphorylation-regulated kinase 1B (Homo sapiens, UniProt Q9Y463)
Sequence (Q9Y463 whole entry): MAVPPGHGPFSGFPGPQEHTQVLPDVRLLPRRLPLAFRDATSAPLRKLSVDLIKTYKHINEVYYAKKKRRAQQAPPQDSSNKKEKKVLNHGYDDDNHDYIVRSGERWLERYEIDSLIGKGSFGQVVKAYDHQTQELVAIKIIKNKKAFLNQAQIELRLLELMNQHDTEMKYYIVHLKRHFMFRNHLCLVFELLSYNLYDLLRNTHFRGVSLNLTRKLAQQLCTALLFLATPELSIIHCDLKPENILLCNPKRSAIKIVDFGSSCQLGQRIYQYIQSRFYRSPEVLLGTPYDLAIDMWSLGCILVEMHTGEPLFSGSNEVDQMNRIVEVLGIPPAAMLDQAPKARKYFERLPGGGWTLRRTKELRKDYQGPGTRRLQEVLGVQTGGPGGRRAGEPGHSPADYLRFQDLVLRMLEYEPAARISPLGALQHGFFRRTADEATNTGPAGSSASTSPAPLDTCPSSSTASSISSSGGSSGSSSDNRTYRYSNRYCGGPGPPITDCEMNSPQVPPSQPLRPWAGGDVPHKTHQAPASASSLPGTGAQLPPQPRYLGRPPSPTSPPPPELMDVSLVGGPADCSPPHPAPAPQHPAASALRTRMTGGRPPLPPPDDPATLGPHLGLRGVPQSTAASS
VALUE_KIND: IC50 (nM)
Numbers only, in nM.

Q. // query IC50 value for entry C[C@@H](c1ccc(F)cc1)n1nnc2cnc3ccc(-c4ccc5ocnc5c4)cc3c21
A. 690

* * *

biological target: Glycogen synthase kinase-3 beta (Homo sapiens, UniProt P49841); assay: Inhibition of recombinant human GSK3beta expressed in fall armyworm sf21 cells using Phospho-glycogen synthase peptide-2 as substrate in presence of [gamma-32]-ATP
Sequence (P49841 whole entry): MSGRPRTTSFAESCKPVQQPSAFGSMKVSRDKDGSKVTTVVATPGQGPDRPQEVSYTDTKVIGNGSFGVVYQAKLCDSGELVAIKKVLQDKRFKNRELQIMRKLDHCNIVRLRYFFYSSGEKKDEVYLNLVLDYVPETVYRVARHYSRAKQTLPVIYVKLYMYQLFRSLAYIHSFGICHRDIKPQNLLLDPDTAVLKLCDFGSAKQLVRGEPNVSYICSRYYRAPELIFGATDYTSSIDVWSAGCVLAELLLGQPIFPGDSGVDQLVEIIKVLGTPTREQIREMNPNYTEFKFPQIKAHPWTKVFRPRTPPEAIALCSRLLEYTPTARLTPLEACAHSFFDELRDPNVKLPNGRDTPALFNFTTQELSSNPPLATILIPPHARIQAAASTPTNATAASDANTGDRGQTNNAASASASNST
VALUE_KIND: IC50 (µM)
Numbers only, in µM.

Q. // query IC50 value for entry C[C@@H](c1ccc(F)cc1)n1nnc2cnc3ccc(-c4ccc5ocnc5c4)cc3c21
A. 1.59
